# System: HOP-62 NSCLC
# experiment.description: NCI tumour cell line growth inhibition, 48 h
reported.property: TGI

[[record]]
compound = "COc1cc(C2(C)SCCCS2)c(I)c(OC)c1OC"
study_system = "HOP-62 NSCLC"
endpoint_result = "> 100 µM"

[[record]]
compound = "CCOC(=O)/C(C#N)=C(N)/C(=N\\Nc1cccc(C(F)(F)F)c1)C(=O)OCC"
study_system = "HOP-62 NSCLC"
endpoint_result = "> 100 µM"

[[record]]
compound = "O=C(O)c1cc2c(c3ccsc13)-c1ccccc1CC2"
study_system = "HOP-62 NSCLC"
endpoint_result = "> 100 µM"

[[record]]
compound = "CN(C)c1ccc(N=C(C#N)c2nc(N)nc(N3CCN(c4ccccc4)CC3)n2)cc1"
study_system = "HOP-62 NSCLC"
endpoint_result = "> 50 µM"

[[record]]
compound = "COc1cc(-c2[o+]c3cc(O)cc(OC4OC(CO)C(O)C(O)C4O)c3cc2OC2OC(CO)C(O)C(O)C2O)cc(OC)c1O (stereo not given)"
study_system = "HOP-62 NSCLC"
endpoint_result = "> 100 µM"

[[record]]
compound = "[N-]=[N+]=Nc1c(Br)c(=O)[nH]c(=O)n1COCCO"
study_system = "HOP-62 NSCLC"
endpoint_result = "> 100 µM"

[[record]]
compound = "Cc1nc2sc(C(=O)Nc3cccc(Cl)c3C)c(N)c2cc1C(C)O (stereo not given)"
study_system = "HOP-62 NSCLC"
endpoint_result = "> 100 µM"

[[record]]
compound = "COC1=CC(=O)c2c(cc(COP(=O)(N(C)CCBr)N(C)CCBr)n2C)C1=O"
study_system = "HOP-62 NSCLC"
endpoint_result = "5.23 µM"

[[record]]
compound = "COc1cc(CC2CC(c3ccc4c(c3)OCO4)OC2=O)cc(OC)c1OC (stereo not given)"
study_system = "HOP-62 NSCLC"
endpoint_result = "> 100 µM"

[[record]]
compound = "COC(=O)c1nn(C(=N)c2ccc(Cl)cc2)c2c1CCCCC2"
study_system = "HOP-62 NSCLC"
endpoint_result = "> 100 µM"

[[record]]
compound = "CCC1CCC2c3c([nH]c4ccccc34)C3C(=O)N(c4ccc(OC)cc4)C(=O)C3C2C1 (stereo not given)"
study_system = "HOP-62 NSCLC"
endpoint_result = "> 100 µM"

[[record]]
compound = "O=C(NCCCCNCCCNC(=O)OCc1ccccc1)OCc1ccccc1"
study_system = "HOP-62 NSCLC"
endpoint_result = "> 100 µM"

[[record]]
compound = "Cc1cc(Cl)ccc1NC(=O)NC(C)(C)COC(=O)Nc1cccc(Cl)c1"
study_system = "HOP-62 NSCLC"
endpoint_result = "50.5 µM"

[[record]]
compound = "O=C(NC/C=C/Br)NC1CCNc2ccccc21 (stereo not given)"
study_system = "HOP-62 NSCLC"
endpoint_result = "> 100 µM"

[[record]]
compound = "CC(C)=CCC/C(C)=C/[C@H]1OC(=O)CC12C[C@H](O)C=CC2=O (stereo not given in full)"
study_system = "HOP-62 NSCLC"
endpoint_result = "2.43 µM"

[[record]]
compound = "CCC1OC(/C(C)=C/C(C)/C=C/C2C(C)C2/C=C/C2OC(CC(=O)O)CC(O)C2O)CC=C1C (stereo not given)"
study_system = "HOP-62 NSCLC"
endpoint_result = "> 50 µM"

[[record]]
compound = "N#Cc1ncc(N2C(=O)C3(CCC3)N(c3ccc(OC4CCNCC4)nc3)C2=S)cc1C(F)(F)F"
study_system = "HOP-62 NSCLC"
endpoint_result = "67.4 µM"

[[record]]
compound = "CCOC(=O)NC(=O)c1cn(C2OC(CO)C(O)C2O)c(=O)[nH]c1=O (stereo not given)"
study_system = "HOP-62 NSCLC"
endpoint_result = "> 100 µM"

[[record]]
compound = "CCCC(=O)OC1CC(n2cc(F)c(=O)[nH]c2=O)OC1CO (stereo not given)"
study_system = "HOP-62 NSCLC"
endpoint_result = "> 10 µM"

[[record]]
compound = "CCCCN(CCCC)C(=O)C(=O)CC(=O)/C=C/c1ccccc1"
study_system = "HOP-62 NSCLC"
endpoint_result = "> 100 µM"

[[record]]
compound = "COc1ccc(/C=C/c2cnc3ccccc3n2)cc1OC"
study_system = "HOP-62 NSCLC"
endpoint_result = "> 100 µM"

[[record]]
compound = "C[C@]12CC[C@H]3[C@@H](CCC4=C[C@@H](OC5OCC(OC6OC(CO)C(O)C(O)C6O)C(O)C5O)CC[C@@]43C=O)[C@@]1(O)CCC2C1=CC(=O)OC1 (stereo not given in full)"
study_system = "HOP-62 NSCLC"
endpoint_result = "1.84 µM"

[[record]]
compound = "CCCCCCCCCCCCCCCCNc1ccn(C2CC(OP(=O)(O)OCC3OC(n4cc(CC)c(=O)[nH]c4=O)CC3O)C(CO)O2)c(=O)n1 (stereo not given)"
study_system = "HOP-62 NSCLC"
endpoint_result = "53.9 µM"

[[record]]
compound = "COC(=O)[C@@H]1O[C@]12[C@@H](CO[Si](C)(C)C(C)(C)C)O[C@@H](n1cc(C)c(=O)[nH]c1=O)[C@@H]2O[Si](C)(C)C(C)(C)C"
study_system = "HOP-62 NSCLC"
endpoint_result = "70.7 µM"

[[record]]
compound = "O=S(=O)(/N=C1/SC(=Nc2ccccc2)N(c2ccccc2)/C1=N/S(=O)(=O)c1ccccc1)c1ccccc1"
study_system = "HOP-62 NSCLC"
endpoint_result = "80.4 µM"

[[record]]
compound = "CN/N=C(\\C(=O)Nc1ccc([N+](=O)[O-])cc1[N+](=O)[O-])C1NC(=O)NC1=O (stereo not given)"
study_system = "HOP-62 NSCLC"
endpoint_result = "> 100 µM"

[[record]]
compound = "CC(C)c1nccn1Cc1ccc(Cl)cc1Cl"
study_system = "HOP-62 NSCLC"
endpoint_result = "> 100 µM"

[[record]]
compound = "COC(=O)C(C(=O)OC)C1CC(=O)c2c(Br)sc(Br)c21 (stereo not given)"
study_system = "HOP-62 NSCLC"
endpoint_result = "46.3 µM"

[[record]]
compound = "O=C1C(=Cc2ccccc2[N+](=O)[O-])N=C(c2ccccc2)N1n1c(-c2ccccc2)nc2ccccc2c1=O"
study_system = "HOP-62 NSCLC"
endpoint_result = "> 100 µM"

[[record]]
compound = "Cc1cc(S(=O)(=O)Nc2nc3cc(-c4ccsc4)sc3c(=O)n2N)c(S)cc1Cl"
study_system = "HOP-62 NSCLC"
endpoint_result = "> 100 µM"

[[record]]
compound = "OC(O)(C(F)(F)F)C(F)(F)F"
study_system = "HOP-62 NSCLC"
endpoint_result = "> 100 µM"

[[record]]
compound = "O=C(Nc1ccccc1C(=O)Nc1nccs1)c1ccccc1"
study_system = "HOP-62 NSCLC"
endpoint_result = "> 100 µM"

[[record]]
compound = "Cc1ccc2cnc(N)c(C#Cc3cncc(C(=O)Nc4ccc(CN5CCN(C)CC5)c(C(F)(F)F)c4)c3)c2c1"
study_system = "HOP-62 NSCLC"
endpoint_result = "1.19 µM"

[[record]]
compound = "CN1N=Nc2c(C(F)(F)F)nn(-c3ccccc3)c2N(C)C1=O"
study_system = "HOP-62 NSCLC"
endpoint_result = "> 100 µM"

[[record]]
compound = "O=C1C2=C(c3ccccc31)C(c1ccc(F)cc1)N1C(=O)CCSC1=N2 (stereo not given)"
study_system = "HOP-62 NSCLC"
endpoint_result = "> 100 µM"

[[record]]
compound = "COC(=O)C12C3C4C1C1C2C3C41C(=O)N(C(C)C)C(C)C (stereo not given)"
study_system = "HOP-62 NSCLC"
endpoint_result = "> 100 µM"

[[record]]
compound = "O=C1C2=C(c3ccccc31)C(c1ccc(Cl)cc1)NC(=S)N2 (stereo not given)"
study_system = "HOP-62 NSCLC"
endpoint_result = "> 100 µM"

[[record]]
compound = "C[C@@H](c1ccccc1)N(CC#N)C1CCC[C@H]1O (stereo not given in full)"
study_system = "HOP-62 NSCLC"
endpoint_result = "> 100 µM"

[[record]]
compound = "O=c1oc2ccccc2c(O)c1Cc1cccc(Cc2c(O)c3ccccc3oc2=O)c1"
study_system = "HOP-62 NSCLC"
endpoint_result = "> 100 µM"

[[record]]
compound = "COc1ccc(C2NC(=O)Nc3c2c(=O)oc2c3ccc3ccccc32)cc1 (stereo not given)"
study_system = "HOP-62 NSCLC"
endpoint_result = "> 100 µM"

